- Test system: PC-3 prostate
- Protocol details: NCI tumour cell line growth inhibition, 48 h
A collection of compounds and their measured TGI

As a guide, the following entries are already answered.
Request: For CC1OC2=N[C@@H]1C(=O)N[C@@H](C(C)C)C1=N[C@H](C(=O)N[C@@H](C(C)C)C3=N[C@H](C(=O)N[C@@H](C(C)C)C4=N[C@H](C(=O)N[C@H]2C(C)C)C(C)O4)C(C)O3)C(C)O1 (stereo partly specified) , what is its reported TGI?
Result: > 10 µM

Request: Find the recorded TGI belonging to CN(C)/N=C/c1cn(C)c(=O)n(C)c1=O and report it.
Result: > 100 µM

Request: Fill in: TGI of O=[N+]([O-])c1ccc(S(=O)Cc2ccccc2)c([N+](=O)[O-])c1 (stereo unspecified) is ___
Result: 30.9 µM

Request: Field request: TGI | item: N=C1N(S(=O)(=O)c2ccccc2)[C@@H](Cc2ccccc2)[C@H](c2ccccc2)C1(c1ccccc1)c1ccccc1
Result: > 100 µM

Request: Looking for the measured TGI of Cc1cc(O)c(C(C)C)cc1SC#N , can you help?
Result: 34.4 µM

---
Request: Which measured TGI value corresponds to Cc1nc2c3c(ncn2n1)Oc1c(c(-c2ccccc2)nn1-c1ccccc1)C3c1ccc(Cl)cc1 (stereo unspecified) ?
Result: > 100 µM

Request: What value of measured TGI is listed for C=C(CCC(C)C1CCC2C3=C(C(=O)CC21C)C1(C)CCC(=O)[C@@H](C)C1CC3=O)C(C)C(=O)O (stereo partly specified) ?
Result: > 100 µM

Request: What value of measured TGI is listed for CSC(CC(=O)O)C(=O)O (stereo unspecified) ?
Result: > 100 µM

Request: Endpoint output: TGI of O=C1CCC2(CCO1)OCCO2 . Value?
Result: > 100 µM

Request: Would you kindly share the measured TGI for CCOC(=O)C1=C(c2ccccc2)N(C)c2ccccc2S1 ?
Result: > 100 µM

###

- Tested on: LOX IMVI melanoma
- Protocol details: NCI tumour cell line growth inhibition, 48 h
# label = satisfied if TGI >= 30 µM else not satisfied

The examples below pair each entry with its known result.
Request: Given Oc1ccc(C(c2ccc(O)cc2)c2ccc(Cl)cn2)cc1 , state whether its TGI is at least 30 µM.
Result: satisfied

Request: Does the compound O=C1C=CC(=O)C(CNc2ccc(C(=O)OC34CC5CC(CC(C5)C3)C4)cc2)=C1 have recorded TGI that is 30 µM or more?
Result: not satisfied

Request: Is the recorded value of TGI equal to or greater than 30 µM for this compound? O=c1[nH]c(=O)n([C@@H]2C[C@H](CO)[C@H](O)C2)cc1/C=C/Br
Result: satisfied

Request: Confirm if TGI reported for the compound Cc1cc(O)c(C(C)C)cc1SC#N is 30 µM or above.
Result: satisfied

Request: Assess whether reported TGI for COc1ccccc1N=C(N)N/N=C/c1c[nH]c2ccccc12 sits at 30 µM or higher.
Result: not satisfied

Request: Quick check, TGI >= 30 µM? OCCCOC(c1ccccc1)(c1ccccc1)c1ccccc1
Result: satisfied

Request: Textbook exercise: given the entry C[C@@H](O)C(=O)N1[C@@H]2CC3CC[C@]2(CS1(=O)=O)C3(C)C , state whether its TGI is greater than or equal to 30 µM.
Result: satisfied

Request: API: above_or_equal(metric=TGI, cutoff=30 µM) for item CCCCc1cc2c(C)cc(=O)oc2c(O)c1O
Result: satisfied

***
Request: Please tell me: is the compound O=C1C=CC=CC2CC=C[C@@H](O)C12 (some centres undefined) at or over 30 µM in terms of TGI?
Result: satisfied

Request: Has CCN(CC)CCNc1ccc([N+](=O)[O-])c2sc3ccccc3c(=O)c12 a recorded TGI greater than or equal to 30 µM?
Result: not satisfied

Data origin, for the record: PubChem BioAssay (NCI)
